Origin of values: patent US9075281B2

Test: Measurement of relative permittivity
Type: physicochemical
Conditions: dye itself, extrapolated from 1, 1.5 and 2% by mass n-hexane solutions; 20° C., 40% RH, 1 kHz
QUANTITY_MEASURED: Relative Permittivity
Answers are plain numbers.

CCCCC(CC)CN(CC(CC)CCCC)c1ccc(/N=C2\C(C#N)=C(C(=O)OC3C(C(C)(C)C)CC(C)CC3C(C)(C)C)c3nc(C(CC)CCCC)nn32)c(C(C)CC)c1 (stereo not shown) [D9-3]; 7.6
CCCCC(CC)CNC(=O)C1=CC(=Nc2ccc(N(CC(CC)CCCC)CC(CC)CCCC)cc2C)c2ccccc2C1=O (stereo not shown) [D10-1]; 4.2
CCCCC(CC)CNc1ccc(NCC(CC)CCCC)c2c1C(=O)c1ccccc1C2=O (stereo not shown) [D4-2]; 6.5
CCCCC(CC)CN(CC(CC)CCCC)c1ccc(C=C2C(=O)ON=C2C(C)CC)c(C)c1 (stereo not shown) [D1-1]; 8.8
CCCCC(CC)COc1cc(N(CC(CC)CCCC)CC(CC)CCCC)ccc1N=C1C(=O)N(CC(CC)CCCC)N=C1C (stereo not shown) [D6-1]; 7.5

# batch size: 5; output Relative Permittivity per entry
1. CCCCCCN(CCCCCC)c1ccc(C=C2C(=O)N(CC(CC)CCCC)N=C2C)c(C)c1 (stereo not shown) [D2-5]
2. CCCCC(CC)CN(CC(CC)CCCC)c1ccc(C=C2C(=O)N(C(C)CC)N=C2C(C)CC)c(C)c1 (stereo not shown) [D2-1]
3. CCCCC(CC)CNC(=O)c1cc(N(CC(CC)CCCC)CC(CC)CCCC)ccc1/N=C1\C(C#N)=C(C(=O)OC2C(C(C)(C)C)CC(C)CC2C(C)(C)C)c2nc(C(C)(C)C)nn21 (stereo not shown) [D9-6]
4. CCCCC(CC)CN(CC(CC)CCCC)c1ccc(/N=C2\C(C#N)=C(C(=O)OC3C(C(C)(C)C)CC(C)CC3C(C)(C)C)c3nc(C(C)(C)C)nn32)cc1 (stereo not shown) [D9-5]
5. CCCCC(CC)CNC(=O)c1cc(N(CC(CC)CCCC)CC(CC)CCCC)ccc1/N=C1/C(CC)=Nn2nc(C(C)C)nc21 (stereo not shown) [D8-9]

Outgoing:
[8.0, 8.5, 6.2, 6.5, 7.7]

* * *

Assay: Absorption maximum wavelength, absorbance and absorption coefficient of the colored composition
Assay type: physicochemical
Conditions: n-hexane solution, 3% by mass or maximum concentration at which the dye completely dissolves
Description: 2. Absorption Maximum Wavelength, Absorbance and Absorption Coefficient of the Colored Composition The absorption maximum wavelength (λmax) and the absorbance (abs) of the colored composition were measured using a visible-light spectrophotometer (trade name: UV-1800PC, manufactured by Shimadzu Corporation). The absorption coefficient (∈) was calculated based on the Lambert-Beer law.
Provide the recorded Absorption Maximum Wavelength (λ max) for the entries that follow.
Answers are plain numbers, in nm.

Recorded results for 2 molecules are shown here.
CCCCC(CC)CC1=NN(CC(CC)CCCC)C(=O)C1=Cc1ccc(N(CC)CC)cc1OCC(CC(C)CC(C)CC(C)C)CC(C)CC(C)(C)C (stereo not drawn) [D2-2]; 505
CCCCC(CC)CN(CC(CC)CCCC)c1ccc(C=C2C(=O)N(C(C)CC)N=C2C(C)CC)c(C)c1 (stereo not drawn) [D2-1]; 508

# batch size: 4; output Absorption Maximum Wavelength (λ max) per entry
1. CCCCC(CC)CNc1ccc(NCC(CC)CCCC)c2c1C(=O)c1ccccc1C2=O (stereo not drawn)
2. CCCCCCCCN1c2cc(C)c(/N=C3/C(C)=Nn4nc(C(C)(C)C)nc43)cc2C(C)CC1(C)C (stereo not drawn) [D8-101, reference compound]
3. CCCCC(CC)CN1C(=O)C(=Cc2ccc(N(CCCC)CCCC)cc2OCC(CC(C)CC(C)CC(C)C)CC(C)CC(C)(C)C)C(C)=C(C#N)C1=O (stereo not drawn)
4. CCCCCCCCN1c2cc(C)c(/N=C3\C(C#N)=C(C(=O)OC4C(C(C)(C)C)CC(C)CC4C(C)(C)C)c4nc(C(C)CCCC)nn43)cc2C(C)CC1(C)C (stereo not drawn)

Outgoing:
[640, 541, 525, 616]

* * *

Provide the recorded Solubility (% by Mass) for the entries that follow.
Assay: Solubility of the dye in n-hexane
Type: physicochemical
Conditions: in n-hexane at 25° C. and 0.1 MPa
Numbers only, in % by mass.

Recorded results for 2 compounds are shown here.
CCCCC(CC)CC1=NN(CC(CC)CCCC)C(=O)C1=Cc1ccc(N(CC)CC)cc1OCC(CC(C)CC(C)CC(C)C)CC(C)CC(C)(C)C (centres unmarked) [D2-2]; 9.8
CCCCC1=NN(CCCC)C(=O)C1=Cc1ccc(N(CCCC)CCCC)cc1C [D2-101, reference compound]; 0.1

Here is another compound to look at.
Incoming: What Solubility (% by Mass) value was documented for this compound, CCCCCCCCN1c2cc(C)c(/N=C3/C(C)=Nn4nc(C(C)(C)C)nc43)cc2C(C)CC1(C)C (centres unmarked) [D8-101, reference compound] ?
Outgoing: 0.8

* * *

Provide the recorded Dynamic Viscosity (mPa · s) for the entries that follow.
Test: Measurement of dynamic viscosity
Assay type: physicochemical
Details: 3% by mass solution in n-decane, 20° C.
Answers are plain numbers, in mPa·s.

Recorded results for 3 compounds are shown here.
CCCCC(CC)CN(CC(CC)CCCC)c1ccc(/N=C2\C(C#N)=C(C(=O)OC3C(C(C)(C)C)CC(C)CC3C(C)(C)C)c3nc(C(C)(C)C)nn32)cc1 (stereo not shown) [D9-5]; 1.2
CCCCC(CC)CN(CC(CC)CCCC)c1ccc(C=C2C(=O)ON=C2C(C)CC)c(C)c1 (stereo not shown) [D1-1]; 1.2
CCCCC(CC)CN(CC(CC)CCCC)c1ccc(C=C2C(=O)N(C(C)CC)C(=O)C(C#N)=C2C(C)CC)c(C)c1 (stereo not shown) [D3-1]; 1.2

Here is another compound to look at.
Incoming: What Dynamic Viscosity (mPa · s) value was documented for this compound, CCCCC(CC)CNc1ccc(NCC(CC)CCCC)c2c1C(=O)c1ccccc1C2=O (stereo not shown) [D4-2] ?
Outgoing: 1.3

* * *

Provide the recorded Relative Permittivity for the entries that follow.
Assay: Measurement of relative permittivity
Type: physicochemical
Settings: dye itself, extrapolated from 1, 1.5 and 2% by mass n-hexane solutions; 20° C., 40% RH, 1 kHz
Method: 4. Measurement of Relative Permittivity Solutions of Exemplary Compound D8-4 in n-hexane having concentrations of 1% by mass, 1.5% by mass and 2% by mass, respectively, were prepared, and individually injected into glass cells each having transparent indium-tin-oxide electrodes and a cell gap of 10 μm. The electrical capacities of the resultant cells were measured at 20° C. and 40% RH using a type 2353 LCR meter (manufactured by NF Corporation) at a measurement frequency of 1 kHz. […]
Answers are plain numbers.

CCCCC(CC)CN(CC(CC)CCCC)c1ccc(C=C2C(=O)N(C(C)CC)C(=O)C(C#N)=C2C(C)CC)c(C)c1 (stereo not drawn) [D3-1]; 9.5
CCCCCC(CC)c1nc2n(n1)N=C(C(C)CC)/C2=N/c1ccc(N(CC(CC)CCCC)CC(CC)CCCC)cc1C (stereo not drawn) [D8-4]; 7.8

Here is another compound to look at.
Incoming: What Relative Permittivity value was documented for this compound, CCCCC(CC)CN(CC(CC)CCCC)c1ccc(/N=C2\C(C#N)=C(C(=O)OC3C(C(C)(C)C)CC(C)CC3C(C)(C)C)c3nc(C(C)(C)C)nn32)c(C(=O)N(CCCC)CCCC)c1 (stereo not drawn) [D9-4] ?
Outgoing: 5.6

* * *

Provide the recorded Absorption Coefficient (ε) for the entries that follow.
Test: Absorption maximum wavelength, absorbance and absorption coefficient of the colored composition
Format: physicochemical
Details: n-hexane solution, 3% by mass or maximum concentration at which the dye completely dissolves; calculated by Lambert-Beer law

# batch size: 3; output Absorption Coefficient (ε) per entry
1. CCCCC(CC)CC1=NN(CC(CC)CCCC)C(=O)C1=Cc1ccc(N(CC)CC)cc1OCC(CC(C)CC(C)CC(C)C)CC(C)CC(C)(C)C (stereo not shown) [D2-2]
2. CCCCCCN(CCCCCC)c1ccc(C=C2C(=O)N(CC(CC)CCCC)N=C2C)c(C)c1 (stereo not shown) [D2-5]
3. CCCCC(CC)CN(CC(CC)CCCC)c1ccc(C=C2C(=O)N(C(C)CC)N=C2C(C)CC)c(C)c1 (stereo not shown) [D2-1]

Outgoing:
1. 4.60 × 10^4
2. 4.30 × 10^4
3. 4.40 × 10^4

Incoming: What Absorption Coefficient (ε) value was documented for this molecule, CCCCC1=NN(CCCC)C(=O)C1=Cc1ccc(N(CCCC)CCCC)cc1C [D2-101, reference compound] ?
Outgoing: 4.25 × 10^4

* * *

Assay: Absorption maximum wavelength, absorbance and absorption coefficient of the colored composition
Type: physicochemical
Details: n-hexane solution, 3% by mass or maximum concentration at which the dye completely dissolves
QUANTITY_MEASURED: Absorption Maximum Wavelength (λ max) (nm)
Give bare numbers, in nm.

Recorded results for 2 compounds are shown here.
CCCCCC(CC)c1nc2n(n1)N=C(C(C)CC)/C2=N/c1ccc(N(CC(CC)CCCC)CC(CC)CCCC)cc1C (stereo not shown) [D8-4]; 562
CCCCCCOc1cc(N(CC)CC)ccc1N=C1C(=O)N(CCCC)N=C1C [D6-101, reference compound]; 500

# batch size: 5; output Absorption Maximum Wavelength (λ max) per entry
1. CCCCC(CC)CNC(=O)c1cc(N(CC(CC)CCCC)CC(CC)CCCC)ccc1/N=C1\C(C#N)=C(C(=O)OC2C(C(C)(C)C)CC(C)CC2C(C)(C)C)c2nc(C(C)(C)C)nn21 (stereo not shown) [D9-6]
2. CCCCC(CC)CC1=NN(CC(CC)CCCC)C(=O)C1=Nc1ccc(N(CC)CC)cc1OCC(C)(CC(C)CC(C)C)CC(C)CC(C)(C)C (stereo not shown) [D6-2]
3. CCCCC(CC)COc1cc(N(CC(CC)CCCC)CC(CC)CCCC)ccc1N=C1C(=O)N(CC(CC)CCCC)N=C1C (stereo not shown) [D6-1]
4. CCCCCCN(CCCCCC)c1ccc(C=C2C(=O)N(CC(CC)CCCC)N=C2C)c(C)c1 (stereo not shown) [D2-5]
5. CCCCC(CC)CN(CC(CC)CCCC)c1ccc(/N=C2\C(C#N)=C(C(=O)OC3C(C(C)(C)C)CC(C)CC3C(C)(C)C)c3nc(C(C)(C)C)nn32)cc1 (stereo not shown) [D9-5]

Outgoing:
1. 650
2. 500
3. 505
4. 510
5. 600
